- Tested on: PC-3
- Protocol Summary: Antiproliferative activity against human PC-3 cells assessed as cell growth inhibition incubated for 72 hrs by MTT assay
- Assay type: functional
Provide the recorded GI50 for the entries that follow.
Give bare numbers, in µM.

{"Entry Smiles": "CC(C)Oc1cc(F)ccc1N/N=C1\\C(=O)N(c2ccc(C(=O)N3CCC(N(C)C)CC3)cc2)N=C1c1ccccc1", "Result Units": "µM", "GI50": 2.42}
{"Entry Smiles": "O=C(c1ccc(N2N=C(c3ccccc3)/C(=N/Nc3ccccc3)C2=O)cc1)N1CCC2(CC1)CNC2", "Result Units": "µM", "GI50": 5.6}
{"Entry Smiles": "CC1=NN(c2ccc(C(=O)N3CCC(N(C)C)CC3)cc2)C(=O)/C1=N\\Nc1ccccc1", "Result Units": "µM", "GI50": 4.94}
{"Entry Smiles": "CN(C)CCCNC(=O)c1ccc(N2N=C(c3ccccc3)/C(=N/Nc3ccccc3)C2=O)cc1", "Result Units": "µM", "GI50": 3.76}
{"Entry Smiles": "CN(C)C1CCN(C(=O)c2ccc(N3N=C(c4ccccc4)/C(=N/Nc4ccccc4)C3=O)cc2)CC1", "Result Units": "µM", "GI50": 2.5}

Attention now turns to another entry.
[in] Which GI50 value belongs to COc1cc(N/N=C2\C(=O)N(c3ccc(C(=O)N4CCC(N(C)C)CC4)cc3)N=C2c2ccccc2)ccc1F ?
[out] 3.94
